ASSAY_SYSTEM: Retinoblastoma-associated protein (Homo sapiens, UniProt P06400)
PROPERTY_LABEL: pEC50
As a rule, pEC50 stands for the negative log10 of the concentration, concentration in M.

The compound identified as "C[C@@]1(O)CCC[C@H]1n1c(=O)c(C(F)F)cc2cnc(NC3CCN(S(C)(=O)=O)CC3)nc21" registered its pEC50 at 7.72

====

METHOD_SUMMARY: Metabolic stability in human liver microsomes assessed as intrinsic clearance per mg of protein
Type: ADME, Microsome
STUDY_CONDITIONS: liver microsomes, read-out: CLH
PROPERTY_LABEL: microsomal CLint

The compound identified as "CS(=O)(=O)N1CCC(Nc2ncc3cc(CC#N)c(=O)n(C4CCCC4)c3n2)CC1" registered its microsomal CLint at < 12.1 µL/min/mg

The compound identified as "C[C@@]1(O)CCC[C@H]1n1c(=O)c(Cl)cc2cnc(NC3CCN(S(C)(=O)=O)CC3)nc21" registered its microsomal CLint at < 13.7 µL/min/mg

The compound identified as "C[C@@]1(O)CCC[C@H]1n1c(=O)c(C(F)F)cc2cnc(NC3CCN(S(C)(=O)=O)CC3)nc21" registered its microsomal CLint at < 10.8 µL/min/mg

The compound identified as "CCOCc1cc2cnc(NC3CCN(S(C)(=O)=O)CC3)nc2n(C2CCCC2)c1=O" registered its microsomal CLint at < 37.9 µL/min/mg
